The measurements presented in this section are drawn from patent US9382243B2.

Target: recombinant human AMPK complex 1 (containing α1β1γ1) (Homo sapiens, UniProt Q13131+Q9Y478)
Sequence (Q13131 whole entry): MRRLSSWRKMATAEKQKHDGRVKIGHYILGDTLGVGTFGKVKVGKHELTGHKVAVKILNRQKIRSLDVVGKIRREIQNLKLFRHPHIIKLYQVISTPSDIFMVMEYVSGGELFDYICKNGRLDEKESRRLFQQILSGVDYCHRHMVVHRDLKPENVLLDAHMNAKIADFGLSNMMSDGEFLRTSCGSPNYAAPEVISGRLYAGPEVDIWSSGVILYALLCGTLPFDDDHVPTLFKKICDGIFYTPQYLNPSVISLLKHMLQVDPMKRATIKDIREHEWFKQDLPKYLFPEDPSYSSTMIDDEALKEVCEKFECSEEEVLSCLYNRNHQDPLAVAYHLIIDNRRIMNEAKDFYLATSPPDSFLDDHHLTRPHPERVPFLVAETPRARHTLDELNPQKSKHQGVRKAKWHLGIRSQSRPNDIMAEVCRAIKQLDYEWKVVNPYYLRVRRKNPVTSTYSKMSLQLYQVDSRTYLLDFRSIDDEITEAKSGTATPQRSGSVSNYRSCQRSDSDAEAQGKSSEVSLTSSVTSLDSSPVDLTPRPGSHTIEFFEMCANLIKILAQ
Sequence (Q9Y478 whole entry): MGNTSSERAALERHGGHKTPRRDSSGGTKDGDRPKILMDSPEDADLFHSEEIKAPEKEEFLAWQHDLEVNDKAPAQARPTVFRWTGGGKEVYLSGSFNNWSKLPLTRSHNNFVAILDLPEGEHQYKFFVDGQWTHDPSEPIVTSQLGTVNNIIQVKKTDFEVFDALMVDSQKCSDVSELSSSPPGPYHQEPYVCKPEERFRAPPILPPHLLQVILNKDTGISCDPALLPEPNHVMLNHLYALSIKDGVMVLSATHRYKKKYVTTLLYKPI
Sequence (P54619 whole entry partner): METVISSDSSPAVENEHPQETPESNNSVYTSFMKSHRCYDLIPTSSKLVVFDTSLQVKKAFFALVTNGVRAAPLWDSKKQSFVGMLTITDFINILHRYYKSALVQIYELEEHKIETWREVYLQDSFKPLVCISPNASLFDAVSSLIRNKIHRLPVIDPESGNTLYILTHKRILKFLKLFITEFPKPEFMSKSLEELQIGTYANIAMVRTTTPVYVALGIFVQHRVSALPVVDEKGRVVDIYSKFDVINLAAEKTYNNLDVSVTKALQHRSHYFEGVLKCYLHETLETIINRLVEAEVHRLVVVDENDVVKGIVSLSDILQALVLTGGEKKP
Assay: AMPKSAMSF in vitro AMPK activation assay, complex 1
Assay type: biochemical
Conditions: inflection point reflecting 50% of the maximum activation; table for human AMPK Complex 1
pEC50: −log10 of the molar value.
Catalogue of pEC50 values

{"Compound": "CC1(O)CCN(C(=O)c2ccc(-c3ccc(-c4nc5nc(O[C@H]6CO[C@H](CO)[C@@H](O)C6)[nH]c5cc4Cl)cc3)cc2)CC1 [Example 72]", "pEC50": 8.10}
{"Compound": "OC[C@H]1OC[C@H](Oc2nc3nc(-c4ccc(N5CC[C@@H](O)C5)cc4)c(Cl)cc3[nH]2)C[C@@H]1O [Example 34]", "pEC50": 7.72}
{"Compound": "OC[C@H]1OC[C@H](Oc2nc3nc(-c4ccc(N5CC[C@@H](F)C5)cc4)c(Cl)cc3[nH]2)C[C@@H]1O [Example 35]", "pEC50": 7.74}
{"Compound": "OC[C@H]1OC[C@H](Oc2nc3nc(-c4ccc(-c5ccc(-n6ccnn6)cc5)cc4)c(Cl)cc3[nH]2)C[C@@H]1O [Example 48]", "pEC50": 8.70}

====

Molecular target: recombinant human AMPK complex 1 (containing α1β1γ1) (Homo sapiens, UniProt Q13131+Q9Y478)
Experiment: AMPKSAMSF in vitro AMPK activation assay, complex 1
Assay type: biochemical
Conditions: 10-point titration, expressed as % maximum AMP activation
Quantity Measured: Emax (%)

{"Molecule": "CS(=O)(=O)c1ccc(-c2ccc(-c3nc4nc(O[C@H]5CO[C@H](CO)[C@@H](O)[C@@H]5O)[nH]c4cc3Cl)cc2)cc1", "Target Or Test System": "recombinant human AMPK complex 1 (containing α1β1γ1) (Homo sapiens, UniProt Q13131+Q9Y478)", "Reported": 418}
{"Molecule": "CC(C)(O)[C@H]1OC[C@H](Oc2nc3cc(Cl)c(-c4ccc(-c5ccccc5)cc4)nc3[nH]2)C[C@@H]1O", "Target Or Test System": "recombinant human AMPK complex 1 (containing α1β1γ1) (Homo sapiens, UniProt Q13131+Q9Y478)", "Reported": 417}
{"Molecule": "O=S(=O)(CC1COC1)c1ccc(-c2ccc(-c3nc4nc(O[C@H]5CO[C@H](CO)[C@@H](O)C5)[nH]c4cc3Cl)cc2)cc1", "Target Or Test System": "recombinant human AMPK complex 1 (containing α1β1γ1) (Homo sapiens, UniProt Q13131+Q9Y478)", "Reported": 767}
{"Molecule": "OC[C@H]1OC[C@H](Oc2nc3nc(-c4ccc(-c5ccc(-n6ccnn6)cc5)cc4)c(Cl)cc3[nH]2)C[C@@H]1O", "Target Or Test System": "recombinant human AMPK complex 1 (containing α1β1γ1) (Homo sapiens, UniProt Q13131+Q9Y478)", "Reported": 615}
{"Molecule": "CC1(O)CCN(C(=O)c2ccc(-c3ccc(-c4nc5nc(O[C@H]6CO[C@H](CO)[C@@H](O)C6)[nH]c5cc4Cl)cc3)cc2)CC1", "Target Or Test System": "recombinant human AMPK complex 1 (containing α1β1γ1) (Homo sapiens, UniProt Q13131+Q9Y478)", "Reported": 504}
{"Molecule": "CC(CO)Oc1ccc(-c2nc3nc(O[C@H]4CO[C@H](CO)[C@@H](O)C4)[nH]c3cc2Cl)cc1 (stereo partly drawn)", "Target Or Test System": "recombinant human AMPK complex 1 (containing α1β1γ1) (Homo sapiens, UniProt Q13131+Q9Y478)", "Reported": 574}
